- measurement target: RSV L+P (Human respiratory syncytial virus A, UniProt P28887)
- Construct: Biochemical activity of 1 and 22 against full-length RSV L+P; Twin-Strep-tag (N); made in house; host or cells: Sf9 insect cells (baculovirus, pFastBac Dual)
- Sequence (P03421 whole entry): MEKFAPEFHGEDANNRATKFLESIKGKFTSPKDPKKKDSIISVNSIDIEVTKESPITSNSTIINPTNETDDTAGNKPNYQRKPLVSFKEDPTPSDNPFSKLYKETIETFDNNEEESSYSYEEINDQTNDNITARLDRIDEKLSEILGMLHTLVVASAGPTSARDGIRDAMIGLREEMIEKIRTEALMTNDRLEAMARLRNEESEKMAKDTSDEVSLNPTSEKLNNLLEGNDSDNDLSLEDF
- Sequence (P28887 whole entry): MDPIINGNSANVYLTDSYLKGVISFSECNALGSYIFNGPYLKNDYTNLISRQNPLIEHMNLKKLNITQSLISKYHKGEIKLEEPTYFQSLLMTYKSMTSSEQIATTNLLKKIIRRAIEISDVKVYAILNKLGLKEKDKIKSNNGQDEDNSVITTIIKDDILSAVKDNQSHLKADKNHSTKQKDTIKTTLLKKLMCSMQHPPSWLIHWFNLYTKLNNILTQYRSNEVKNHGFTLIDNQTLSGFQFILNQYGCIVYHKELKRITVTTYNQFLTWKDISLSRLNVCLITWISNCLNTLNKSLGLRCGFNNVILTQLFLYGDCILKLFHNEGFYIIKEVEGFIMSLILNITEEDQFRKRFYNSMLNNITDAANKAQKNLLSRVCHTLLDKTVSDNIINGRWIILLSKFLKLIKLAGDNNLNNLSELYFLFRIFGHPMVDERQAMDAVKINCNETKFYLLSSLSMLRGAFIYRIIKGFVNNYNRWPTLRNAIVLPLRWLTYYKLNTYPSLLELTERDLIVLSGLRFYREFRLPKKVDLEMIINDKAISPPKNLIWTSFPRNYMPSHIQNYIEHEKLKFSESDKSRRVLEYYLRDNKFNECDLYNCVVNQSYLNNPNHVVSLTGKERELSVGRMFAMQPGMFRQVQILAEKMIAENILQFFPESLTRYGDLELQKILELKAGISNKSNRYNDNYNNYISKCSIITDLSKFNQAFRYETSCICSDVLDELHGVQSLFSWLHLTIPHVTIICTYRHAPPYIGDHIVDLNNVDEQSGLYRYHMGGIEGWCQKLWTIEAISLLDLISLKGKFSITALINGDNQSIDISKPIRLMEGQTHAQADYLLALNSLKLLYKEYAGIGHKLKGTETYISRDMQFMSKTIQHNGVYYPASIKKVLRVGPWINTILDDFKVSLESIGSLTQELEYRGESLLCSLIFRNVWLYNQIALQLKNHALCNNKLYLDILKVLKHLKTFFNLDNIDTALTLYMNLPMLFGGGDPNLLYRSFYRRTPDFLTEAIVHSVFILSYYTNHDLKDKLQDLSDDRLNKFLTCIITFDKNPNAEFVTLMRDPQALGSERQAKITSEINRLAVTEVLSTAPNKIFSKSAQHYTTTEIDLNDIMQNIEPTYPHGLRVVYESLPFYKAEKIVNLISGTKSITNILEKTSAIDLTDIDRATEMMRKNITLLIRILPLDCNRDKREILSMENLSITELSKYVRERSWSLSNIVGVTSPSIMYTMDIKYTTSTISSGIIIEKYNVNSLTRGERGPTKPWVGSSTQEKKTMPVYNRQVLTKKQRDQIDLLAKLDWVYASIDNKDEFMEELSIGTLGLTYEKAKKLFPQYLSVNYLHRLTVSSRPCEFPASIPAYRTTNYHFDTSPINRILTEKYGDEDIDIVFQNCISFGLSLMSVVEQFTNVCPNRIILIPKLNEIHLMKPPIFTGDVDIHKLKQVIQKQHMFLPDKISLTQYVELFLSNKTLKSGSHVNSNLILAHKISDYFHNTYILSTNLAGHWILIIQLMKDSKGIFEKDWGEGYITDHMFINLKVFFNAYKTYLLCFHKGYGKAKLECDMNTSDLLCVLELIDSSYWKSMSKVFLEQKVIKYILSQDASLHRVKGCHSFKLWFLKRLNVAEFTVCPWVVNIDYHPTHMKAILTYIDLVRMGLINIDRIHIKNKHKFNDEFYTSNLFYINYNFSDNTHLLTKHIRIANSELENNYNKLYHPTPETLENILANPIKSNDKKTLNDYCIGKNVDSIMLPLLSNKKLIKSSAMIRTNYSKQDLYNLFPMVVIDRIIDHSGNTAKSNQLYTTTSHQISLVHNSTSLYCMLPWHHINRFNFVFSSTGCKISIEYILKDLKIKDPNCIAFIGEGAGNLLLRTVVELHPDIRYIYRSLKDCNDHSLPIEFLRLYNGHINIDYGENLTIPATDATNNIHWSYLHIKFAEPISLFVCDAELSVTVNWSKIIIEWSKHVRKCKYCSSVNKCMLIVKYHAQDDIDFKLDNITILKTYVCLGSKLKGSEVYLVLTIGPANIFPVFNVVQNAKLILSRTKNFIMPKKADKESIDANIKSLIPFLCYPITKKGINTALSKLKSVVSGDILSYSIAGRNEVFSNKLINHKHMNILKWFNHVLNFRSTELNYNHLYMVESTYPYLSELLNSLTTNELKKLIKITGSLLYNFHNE
- test method notes: Pyrophosphate luminescence detection assay, full-length RSV L+P
- Format: biochemical
- setup conditions: pyrophosphate luminescence detection assay, full-length RSV L+P, n ≥ 2; read-out: Biochemical IC50
pIC50: −log10 of the molar value.
Reported pIC50 values for the following compounds.

compound | pIC50
CN1C(=O)C2(CCN(c3cnc(C#N)c(Cl)c3)CC2)c2cc(Br)ccc21 [Compound 22] | 6.57
N#Cc1ncc(N2CCC3(CC2)C(=O)Nc2ccc(F)cc23)cc1Cl [Compound 19] | 5.57
CN1C(=O)C2(CCN(c3ccc(C#N)c(Cl)c3)CC2)c2cc(F)ccc21 [Compound 30] | 5.90
CN1C(=O)C2(CCN(c3ccc(C#N)c(Cl)n3)CC2)c2cc(F)ccc21 [Compound 29] | 5.81
